Tested on: A. actinomycetemcomitans virulence genes
Assay: Virulence gene expression in multi-species biofilm (SYBR RT-qPCR)
Format: cell-based
Settings: substrate 1 M; relative to control = 1, 2^-ΔΔCt; n = 3
Marks after values point to notes of the source that are not given here.
Task for the reader: assign each of the following compounds its reported fold change in orf859 expression, geometric mean (95% C.I.).

fold change in orf859 expression, geometric mean (95% C.I.) recorded for this compound, OC[C@H]1O[C@H](OC[C@H]2O[C@H](O[C@]3(CO)O[C@H](CO)[C@@H](O)[C@@H]3O)[C@H](O)[C@@H](O)[C@@H]2O)[C@H](O)[C@@H](O)[C@H]1O [D-raffinose, D-(+)-raffinose] , is 0.02 (0.01-0.05)^∗ fold

Looking up CC(=O)N[C@H]1C(O)O[C@H](CO)[C@@H](O)[C@@H]1O (stereo partly drawn) [NADG, N-acetyl-D-glucosamine] , I see its fold change in orf859 expression, geometric mean (95% C.I.) listed as 0.13 (0.05-0.36)* fold

Just so you know, measured fold change in orf859 expression, geometric mean (95% C.I.) for OC[C@H]1O[C@H](O[C@H]2O[C@H](CO)[C@@H](O)[C@H](O)[C@H]2O)[C@H](O)[C@@H](O)[C@@H]1O [D-trehalose, D-(+)-trehalose] came out at 0.14 (0.02-0.87)^∗ fold

Quick note, fold change in orf859 expression, geometric mean (95% C.I.) for OC[C@H]1O[C@@H](O[C@H]2[C@H](O)[C@@H](O)[C@@H](O)O[C@@H]2CO)[C@H](O)[C@@H](O)[C@H]1O [D-lactose, α-D-lactose] landed at 0.05 (0.00-0.79)^∗ fold

---

Tested on: S. mutans
Test: Multi-species biofilm composition, absolute abundance (Geq/mL)
Type: cell-based
Settings: substrate 1 M in PBS, repeated rinsing, n = 3
Description: Biofilms are grown vertically on Calcium Deficient Hydroxyapatite (CAD-HA) disks (Hitemco Medical, Old Bethpage, USA) using the Amsterdam Active Adhesion model. Biofilms are allowed to establish during 24 h (37° C., 170 rpm) under microaerophilic conditions (6% O2, 7% CO2, 7% H2, 80% N2). […]
propertyLabel: absolute abundance of S. mutans, mean ± SD log (Geq/mL)

Summary for this compound, OC[C@H]1O[C@H](OC[C@H]2O[C@H](O[C@]3(CO)O[C@H](CO)[C@@H](O)[C@@H]3O)[C@H](O)[C@@H](O)[C@@H]2O)[C@H](O)[C@@H](O)[C@H]1O [D-raffinose, D-(+)-raffinose] : absolute abundance of S. mutans, mean ± SD log (Geq/mL) is 8.24 ± 0.17^∗ log (Geq/mL)

Memo: OC[C@H]1O[C@@H](O[C@H]2[C@H](O)[C@@H](O)[C@@H](O)O[C@@H]2CO)[C@H](O)[C@@H](O)[C@H]1O , reported absolute abundance of S. mutans, mean ± SD log (Geq/mL): 8.00 ± 0.56 log (Geq/mL)

# compound OC[C@H]1O[C@H](O[C@H]2O[C@H](CO)[C@@H](O)[C@H](O)[C@H]2O)[C@H](O)[C@@H](O)[C@@H]1O [D-trehalose, D-(+)-trehalose] ; its absolute abundance of S. mutans, mean ± SD log (Geq/mL) = 8.50 ± 0.29^∗ log (Geq/mL)

Form: compound = CC(=O)N[C@H]1C(O)O[C@H](CO)[C@@H](O)[C@@H]1O (stereo partly shown) ; absolute abundance of S. mutans, mean ± SD log (Geq/mL) = 7.96 ± 0.10 log (Geq/mL)

---

System: A. naeslundii
Assay: Multi-species biofilm composition, absolute abundance (Geq/mL)
Format: cell-based
Settings: substrate 1 M in PBS, repeated rinsing, n = 3
propertyLabel: absolute abundance of A. naeslundii (An), mean ± SD log (Geq/mL)

Looking up CC(=O)N[C@H]1C(O)O[C@H](CO)[C@@H](O)[C@@H]1O (stereo partly drawn) [NADG, N-acetyl-D-glucosamine] , I see its absolute abundance of A. naeslundii (An), mean ± SD log (Geq/mL) listed as 5.41 ± 0.31^∗ log (Geq/mL)

OC[C@H]1O[C@H](O[C@H]2O[C@H](CO)[C@@H](O)[C@H](O)[C@H]2O)[C@H](O)[C@@H](O)[C@@H]1O [D-trehalose, D-(+)-trehalose] has a reported absolute abundance of A. naeslundii (An), mean ± SD log (Geq/mL) of 4.81 ± 0.47^∗ log (Geq/mL)

Documented absolute abundance of A. naeslundii (An), mean ± SD log (Geq/mL) of OC[C@H]1O[C@H](OC[C@H]2O[C@H](O[C@]3(CO)O[C@H](CO)[C@@H](O)[C@@H]3O)[C@H](O)[C@@H](O)[C@@H]2O)[C@H](O)[C@@H](O)[C@H]1O [D-raffinose, D-(+)-raffinose] : 5.32 ± 0.25^∗ log (Geq/mL)

For record OC[C@H]1O[C@@H](O[C@H]2[C@H](O)[C@@H](O)[C@@H](O)O[C@@H]2CO)[C@H](O)[C@@H](O)[C@H]1O [D-lactose, α-D-lactose] the listed absolute abundance of A. naeslundii (An), mean ± SD log (Geq/mL) is 4.86 ± 0.19^∗ log (Geq/mL)

---

System: A. actinomycetemcomitans virulence genes
Assay: Virulence gene expression in multi-species biofilm (SYBR RT-qPCR)
Format: cell-based
Conditions: substrate 1 M; relative to control = 1, 2^-ΔΔCt; n = 3
propertyLabel: fold change in aae expression, geometric mean (95% C.I.)

Consider OC[C@H]1O[C@@H](O[C@H]2[C@H](O)[C@@H](O)[C@@H](O)O[C@@H]2CO)[C@H](O)[C@@H](O)[C@H]1O [D-lactose, α-D-lactose] . Its measured fold change in aae expression, geometric mean (95% C.I.) is 0.03 (0.01-0.22)^∗ fold

Consider OC[C@H]1O[C@H](OC[C@H]2O[C@H](O[C@]3(CO)O[C@H](CO)[C@@H](O)[C@@H]3O)[C@H](O)[C@@H](O)[C@@H]2O)[C@H](O)[C@@H](O)[C@H]1O [D-raffinose, D-(+)-raffinose] . Its measured fold change in aae expression, geometric mean (95% C.I.) is 0.16 (0.05-0.47)^∗ fold

fold change in aae expression, geometric mean (95% C.I.) reported for this compound OC[C@H]1O[C@H](O[C@H]2O[C@H](CO)[C@@H](O)[C@H](O)[C@H]2O)[C@H](O)[C@@H](O)[C@@H]1O [D-trehalose, D-(+)-trehalose] : 0.03 (0.01-0.15)^∗ fold

The compound CC(=O)N[C@H]1C(O)O[C@H](CO)[C@@H](O)[C@@H]1O (stereo partly drawn) [NADG, N-acetyl-D-glucosamine] showed fold change in aae expression, geometric mean (95% C.I.) equal to 0.24 (0.18-0.33)^∗ fold

---

Test system: human oral keratinocytes (HOK-18A)
Assay: Inflammatory mediator gene expression in keratinocytes exposed to substrate-treated biofilms (SYBR RT-qPCR)
Type: cell-based
Conditions: HOK-18A exposed to biofilms treated with substrate 1% (w/v); relative to control; n = 3
For each of the compounds below, state its fold change in MMP-8 gene expression, geometric mean (C.I.).

OC[C@H]1O[C@H](OC[C@H]2O[C@H](O[C@]3(CO)O[C@H](CO)[C@@H](O)[C@@H]3O)[C@H](O)[C@@H](O)[C@@H]2O)[C@H](O)[C@@H](O)[C@H]1O [D-raffinose, D-(+)-raffinose] yielded fold change in MMP-8 gene expression, geometric mean (C.I.) of 0.71 (0.38-1.35) fold

Entry under test: CC(=O)N[C@H]1C(O)O[C@H](CO)[C@@H](O)[C@@H]1O (stereo partly shown) . Its fold change in MMP-8 gene expression, geometric mean (C.I.) was 0.52 (0.17-1.6)^∗ fold

Entry OC[C@H]1O[C@@H](O[C@H]2[C@H](O)[C@@H](O)[C@@H](O)O[C@@H]2CO)[C@H](O)[C@@H](O)[C@H]1O , fold change in MMP-8 gene expression, geometric mean (C.I.) reported as 0.70 (0.62-0.79) fold

Looking up OC[C@H]1O[C@H](O[C@H]2O[C@H](CO)[C@@H](O)[C@H](O)[C@H]2O)[C@H](O)[C@@H](O)[C@@H]1O [D-trehalose, D-(+)-trehalose] , I see its fold change in MMP-8 gene expression, geometric mean (C.I.) listed as 0.66 (0.46-0.93) fold

---

Assignment: determine reported fold change in vapA expression, geometric mean (95% C.I.) for the given molecules.
Test system: A. actinomycetemcomitans virulence genes
Assay: Virulence gene expression in multi-species biofilm (SYBR RT-qPCR)
Type: cell-based
Conditions: substrate 1 M; relative to control = 1, 2^-ΔΔCt; n = 3

// recorded fold change in vapA expression, geometric mean (95% C.I.) for OC[C@H]1O[C@@H](O[C@H]2[C@H](O)[C@@H](O)[C@@H](O)O[C@@H]2CO)[C@H](O)[C@@H](O)[C@H]1O : 0.22 (0.13-0.36)^∗ fold

Per the records, this molecule ( CC(=O)N[C@H]1C(O)O[C@H](CO)[C@@H](O)[C@@H]1O (stereo partly shown) ) has fold change in vapA expression, geometric mean (95% C.I.) equal to 1.00 (0.58-1.75) fold

// sample OC[C@H]1O[C@H](OC[C@H]2O[C@H](O[C@]3(CO)O[C@H](CO)[C@@H](O)[C@@H]3O)[C@H](O)[C@@H](O)[C@@H]2O)[C@H](O)[C@@H](O)[C@H]1O [D-raffinose, D-(+)-raffinose] , its fold change in vapA expression, geometric mean (95% C.I.) was 0.50 (0.13-1.94) fold

Per the records, this molecule ( OC[C@H]1O[C@H](O[C@H]2O[C@H](CO)[C@@H](O)[C@H](O)[C@H]2O)[C@H](O)[C@@H](O)[C@@H]1O [D-trehalose, D-(+)-trehalose] ) has fold change in vapA expression, geometric mean (95% C.I.) equal to 0.32 (0.08-1.26)^∗ fold
